Molecular target: NOX (Homo sapiens, UniProt P04839)
Construct: HL60 differentiation to the neutrophil phenotype was triggered by adding Me2SO; endogenous in cells; host or cells: HL-60 cells differentiated with DMSO (1.25% v/v, 6 days) to the neutrophil phenotype
Sequence (P04839 whole entry): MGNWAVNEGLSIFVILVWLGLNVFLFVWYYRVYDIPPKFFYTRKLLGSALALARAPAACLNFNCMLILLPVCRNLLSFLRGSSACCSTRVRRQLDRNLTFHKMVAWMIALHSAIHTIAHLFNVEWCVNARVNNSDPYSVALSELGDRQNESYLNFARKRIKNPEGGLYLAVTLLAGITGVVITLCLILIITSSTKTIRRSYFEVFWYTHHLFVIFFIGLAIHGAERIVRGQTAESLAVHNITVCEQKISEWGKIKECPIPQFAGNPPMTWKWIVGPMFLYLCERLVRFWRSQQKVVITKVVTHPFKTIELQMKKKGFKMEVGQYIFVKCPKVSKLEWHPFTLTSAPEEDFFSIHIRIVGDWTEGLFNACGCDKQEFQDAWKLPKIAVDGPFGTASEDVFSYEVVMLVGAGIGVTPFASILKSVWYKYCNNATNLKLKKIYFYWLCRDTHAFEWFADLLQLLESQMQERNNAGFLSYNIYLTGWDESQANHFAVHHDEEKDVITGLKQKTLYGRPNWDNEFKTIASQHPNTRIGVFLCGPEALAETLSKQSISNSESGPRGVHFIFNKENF
Sequence (P13498 whole entry partner): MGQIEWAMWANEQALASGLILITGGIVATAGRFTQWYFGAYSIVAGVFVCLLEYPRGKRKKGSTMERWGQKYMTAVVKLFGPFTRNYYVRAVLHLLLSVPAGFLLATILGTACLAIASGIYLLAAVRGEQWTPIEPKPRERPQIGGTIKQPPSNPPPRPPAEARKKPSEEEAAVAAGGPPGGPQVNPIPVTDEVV
Assay: Amplex Red measurement of extracellular hydrogen peroxide (NOX activity) using DMSO-differentiated HL60 cells
Assay type: cell-based
Conditions: DMSO-differentiated HL60 cells, test concentration not given
Measurement type: Inhibition (%) of NOX activity
Number only, in %; omit the unit.

So what does the record say about Inhibition (%) of NOX activity for COCCn1[nH]c2cc(=O)n(CCOC)c(CCCOc3ccccc3)c2c1=O ? 90

So what does the record say about Inhibition (%) of NOX activity for Cc1c2c(=O)n(CCOc3ccc(Cl)cc3)[nH]c2cc(=O)n1Cc1ccccn1 ? 79

So what does the record say about Inhibition (%) of NOX activity for Cc1c2c(=O)n(C)[nH]c2cc(=O)n1Cc1ccccn1 ? 65
